# assay.protocol: Elimination rate constant in rat at 80 mg/kg, po
# Assay type: ADME, organism-based
# measurement.setup: in vivo
measured.property: Kel (h⁻¹)
Write the value in h⁻¹ as a bare number.

Looking for the measured Kel of O=C(c1cccc(-c2nc3ccccc3[nH]2)n1)N1CCN(C(=O)c2cccc(-c3nc4ccccc4[nH]3)n2)CC1 [OMILANCOR] , can you help?
0.225

###

# assay.protocol: Half-life in rat at 80 mg/kg, po by LC-MS/MS analysis
# measurement.setup: in vivo
measured.property: half-life (h)
Write the value in h as a bare number.

Looking for the measured half-life of O=C(c1cccc(-c2nc3ccccc3[nH]2)n1)N1CCN(C(=O)c2cccc(-c3nc4ccccc4[nH]3)n2)CC1 , can you help?
3.1

###

# assay.protocol: Tmax in rat plasma at 80 mg/kg, po by LC-MS/MS analysis
# Assay type: ADME, organism-based
measured.property: Tmax
Write the numeric value and follow it with the unit.

Looking for the measured Tmax of O=C(c1cccc(-c2nc3ccccc3[nH]2)n1)N1CCN(C(=O)c2cccc(-c3nc4ccccc4[nH]3)n2)CC1 , can you help?
1 h

###

# assay.protocol: Tmax in rat at 500 mg/kg, po by LC-MS/MS analysis
# Format: ADME, organism-based
# measurement.setup: in vivo
measured.property: Tmax (h)
Write the value in h as a bare number.

Looking for the measured Tmax of O=C(c1cccc(-c2nc3ccccc3[nH]2)n1)N1CCN(C(=O)c2cccc(-c3nc4ccccc4[nH]3)n2)CC1 , can you help?
4

###

# assay.protocol: Cmax in rat at 500 mg/kg, po by LC-MS/MS analysis by LC-MS/MS analysis
# Type: ADME, organism-based
# Parameters: route oral, dose 500 mg/kg
# measurement.setup: in vivo
measured.property: Cmax
Write the numeric value and follow it with the unit.

Looking for the measured Cmax of O=C(c1cccc(-c2nc3ccccc3[nH]2)n1)N1CCN(C(=O)c2cccc(-c3nc4ccccc4[nH]3)n2)CC1 , can you help?
17 ng/mL
